Recorded r2 - F (transverse relaxivity, free), one value per entry.
ASSAY_OVERVIEW: Relaxivity determination of free (unbound) contrast agents
Type: physicochemical
ASSAY_SETUP: 400 MHz, 37° C.
The reply should be a number in mM⁻¹ s⁻¹, with the unit left off.

In the examples that follow, each entry is paired with its recorded r2 - F (transverse relaxivity, free).
O=C([O-])CN1CCN(CC(=O)[O-])CCN(CC(=O)NCCOCCOCCCCCCCl)CCN(CC(=O)[O-])CC1.[Gd+3]    4.0
O=C([O-])CN1CCN(CCC(=O)NCCOCCOCCCCCCCl)CCN(CC(=O)[O-])CCN(CC(=O)[O-])CC1.[Gd+3]    4.1
O=C([O-])CN1CCN(CCCC(=O)NCCOCCOCCCCCCCl)CCN(CC(=O)[O-])CCN(CC(=O)[O-])CC1.[Gd+3]    4.9

Attention now turns to another entry.
The recorded r2 - F (transverse relaxivity, free) for O=C([O-])CN1CCN(CCCCC(=O)NCCOCCOCCCCCCCl)CCN(CC(=O)[O-])CCN(CC(=O)[O-])CC1.[Gd+3] is 6.9
